Value source: patent US10131652B2

Test system: wild oat (Avena fatua)
Assay: Test D postemergence plant response
Format: in vivo
Conditions: 62 g ai/ha, scale 0 to 100, 0 no effect, 100 complete control
Description: At the same time, plants selected from these crop and weed species and also kochia (Kochia scoparia), wild oat (Avena fatua), and chickweed (common chickweed, Stellaria media) were planted in pots containing Redi-Earth® planting medium (Scotts Company, 14111 Scottslawn Road, Marysville, Ohio 43041) comprising spaghnum peat moss, vermiculite, wetting agent and starter nutrients and treated with postemergence applications of test chemicals formulated in the same manner. […]
quantityKind: Plant response rating, Oat, Wild

[[record]]
structureassmiles = "Cc1cc(-c2ccccc2Oc2ncc(Cl)cn2)on1"
numericresult = 0

[[record]]
structureassmiles = "FC(F)(F)c1cc(-c2c(I)cccc2Oc2ncc(Cl)cn2)no1"
numericresult = 0

[[record]]
structureassmiles = "FC(F)c1cc(-c2c(Cl)cccc2Oc2ncc(Br)cn2)on1"
numericresult = 70

[[record]]
structureassmiles = "FC(F)Oc1cccc(Oc2ncc(Cl)cn2)c1-c1cc(C(F)F)on1"
numericresult = 20


----------
Recorded Plant response rating, Foxtail, Giant by entry
System: giant foxtail (Setaria faberii)
Assay: Test B pre-/postemergence plant response
Type: in vivo
Details: Preemergence, 500 g ai/ha; 0 to 100 scale where 0 is no effect and 100 is complete control
quantityKind: Plant response rating, Foxtail, Giant

[[record]]
structureassmiles = "N#Cc1cccc(Oc2ncc(Cl)cn2)c1-c1ccc(Cl)cn1"
quantitykind = "Plant response rating, Foxtail, Giant"
numericresult = 100

[[record]]
structureassmiles = "Clc1ccc(-c2ccc(Br)cc2Oc2ncc(Cl)cn2)nc1"
quantitykind = "Plant response rating, Foxtail, Giant"
numericresult = 0

[[record]]
structureassmiles = "FC(F)(F)c1cc(-c2c(Br)cccc2Oc2ncc(Cl)cn2)no1"
quantitykind = "Plant response rating, Foxtail, Giant"
numericresult = 90

[[record]]
structureassmiles = "FC(F)(F)c1ccnc(-c2c(Cl)cccc2Oc2ncc(Cl)cn2)c1"
quantitykind = "Plant response rating, Foxtail, Giant"
numericresult = 90

[[record]]
structureassmiles = "Fc1cccc(Oc2ncc(Cl)cn2)c1-c1cn(CC(F)(F)F)cn1"
quantitykind = "Plant response rating, Foxtail, Giant"
numericresult = 30

[[record]]
structureassmiles = "Clc1cnc(Oc2ccccc2-c2cc(Cl)cc(Cl)c2)nc1"
quantitykind = "Plant response rating, Foxtail, Giant"
numericresult = 20

[[record]]
structureassmiles = "Clc1cnc(Oc2ccccc2-c2cc(Cl)ncn2)nc1"
quantitykind = "Plant response rating, Foxtail, Giant"
numericresult = 10

[[record]]
structureassmiles = "FC(F)(F)c1cc(-c2c(I)cccc2Oc2ncc(Cl)cn2)no1"
quantitykind = "Plant response rating, Foxtail, Giant"
numericresult = 80

[[record]]
structureassmiles = "FC(F)(F)c1cc(-c2ccccc2Oc2ncc(Cl)cn2)ncn1"
quantitykind = "Plant response rating, Foxtail, Giant"
numericresult = 100


----------
System: corn (Zea mays)
Assay: Test D pre-/postemergence plant response
Assay type: in vivo
Settings: Postemergence, 125 g ai/ha; scale 0 to 100, 0 no effect, 100 complete control
Recorded Plant response rating, Corn by entry
quantityKind: Plant response rating, Corn

[[record]]
compound = "CC(F)(F)c1cc(-c2ccccc2Oc2ncc(Cl)cn2)on1 [Compound 178]"
numericresult = 10

[[record]]
compound = "FC(F)c1cc(-c2ccccc2Oc2ncc(Br)cn2)on1 [Compound 212]"
numericresult = 15

[[record]]
compound = "FCc1cc(-c2c(Br)cccc2Oc2ncc(Cl)cn2)no1 [Compound 191]"
numericresult = 10

[[record]]
compound = "Fc1ccc(Oc2ncc(Cl)cn2)c(-c2cc(C(F)F)on2)c1F [Compound 113]"
numericresult = 25

[[record]]
compound = "FC(F)(Cl)c1cc(-c2ccccc2Oc2ncc(Cl)cn2)no1 [Compound 143]"
numericresult = 10

